- System name: cyclohexanone monooxygenase (CHMO) (Acinetobacter johnsonii, UniProt P12015, L323C/A325C)
- Measurement context: oxidised enzyme, engineered disulfide formed
Measure: pKd
// scale note: pKd = -log10(conc_M); give the bare number

Record request: pKd value, item `NC(=O)c1ccc[n+]([C@@H]2O[C@H](COP(=O)(O)OP(=O)(O)OC[C@H]3O[C@@H](n4cnc5c(N)ncnc54)[C@H](OP(=O)(O)O)[C@@H]3O)[C@@H](O)[C@H]2O)c1`
4.82
